Where these numbers come from: the METLIN SMRT retention time set (Domingo-Almenara et al. 2019)

Recorded RP-LC retention time by entry
Experiment: gradient 5% acetonitrile 3 min, to 50% in 2 min, to 85% in 15 min, held 3 min, 100 µL/min
Details: column: Zorbax Extend-C18 2.1 x 50 mm; eluents: water / acetonitrile, 0.1% formic acid
A number alone suffices; assume s.

Known results for compounds:
CCn1c(=O)c(N2CCC(C(=O)NCCc3c[nH]c4ccc(Cl)cc34)CC2)nc2cccnc21    993
O=C(C1CCN(c2cn[nH]c(=O)c2)C1)N1CCCC1 (stereo not drawn)    571

Field: next compound
In: Supply RP-LC retention time value. Item: Cc1c(C(=O)NCCOc2cccc3cccnc23)cnn1-c1ccccc1
Out: 593

* * *

Experiment: gradient 5% acetonitrile 3 min, to 50% in 2 min, to 85% in 15 min, held 3 min, 100 µL/min
Conditions: column: Zorbax Extend-C18 2.1 x 50 mm; eluents: water / acetonitrile, 0.1% formic acid
Measurement label: RP-LC retention time (s)
Give just the number in s; leave the unit off.

The examples below pair each entry with its known result.
COc1ccc(OC)c(CNC(=O)c2c(C)sc3ccn(CC(C)C)c(=O)c23)c1    975
CC(C)c1csc(-c2csc(S(=O)(=O)NCc3ccccc3)c2)n1    1040
COc1ccc(N2C(=O)N[C@@H]3C[C@]2(C)Oc2ccc(C)cc23)c(OC)c1    870
O=C(COc1cc(O)c2c(=O)c3ccccc3oc2c1)OCc1ccccc1    1220
CC1CCN(C(=O)C2=NN(CC(=O)OC(C)C)c3ccccc3S2(=O)=O)CC1    952

In: Write down RP-LC retention time measured for item CCn1cc(-c2ccc(C)cc2)cc1C(=O)NC(C)c1cccnc1 (stereo not given)
Out: 736

In: Give reported RP-LC retention time value for COc1ccccc1-c1cc(C(=O)N2CCN(c3cc(=O)n(C)c(=O)n3C)CC2)[nH]n1
Out: 665

In: Quickly give me recorded RP-LC retention time for COc1ccccc1N1CCN(C(=O)c2cc(C3CC3)[nH]n2)CC1
Out: 699

* * *

Measured RP-LC retention time, listed per entry.
Test: gradient 5% acetonitrile 3 min, to 50% in 2 min, to 85% in 15 min, held 3 min, 100 µL/min
Conditions: column: Zorbax Extend-C18 2.1 x 50 mm; eluents: water / acetonitrile, 0.1% formic acid
Only the number, expressed in s, is required.

Illustrative cases are given below, each with its answer.
Cc1ccc(Nc2c(-c3ccccc3)nc3ncccn23)c(C)c1    786
CC(C)c1nnc(-c2coc(S(=O)(=O)N3CCCCC3C)c2)o1 (stereo not drawn)    904
Cc1cc(C)n(Cc2ccc(C(=O)N3CCN(c4cc(=O)n(C(C)C)c(=O)n4C(C)C)CC3)o2)n1    772
CCN(CC)C(=O)c1ccc2c(c1)N(CC(=O)NCCC1=CCCCC1)C(=O)CS2    864

In: Give recorded RP-LC retention time. Cc1cc(C)cc(Nc2c(-c3ccc(O)cc3)nc3ncccn23)c1
Out: 705

In: Kindly indicate its recorded RP-LC retention time. Item: COc1ccc(NC(=O)c2ccc3[nH]c4c(c3c2)CN(C(=O)C2CCC2)CC4)c(OC)c1
Out: 807

In: Give reported RP-LC retention time value for CC1CCCN(CC(=O)Nc2nc(-c3ccccc3)cs2)C1 (stereo not drawn)
Out: 655

In: Please supply the value of reported RP-LC retention time for the item Cc1ccc2cc(CCC(=O)NCc3ccc(N4CCOCC4)cc3)c(=O)[nH]c2c1
Out: 655

In: Complete the entry with RP-LC retention time for CCOc1cccc2cc(C(=O)Nc3nc(-c4ccccc4)cs3)c(=N)oc12
Out: 987

In: Determine from records and report RP-LC retention time for COc1ccc2[nH]cc(CCNC(=O)c3ccc(SC)cc3OC)c2c1
Out: 865

In: Identify RP-LC retention time associated with the compound CC(C)CCN1CC(=O)N2Cc3[nH]c4ccccc4c3C[C@H]2C1=O
Out: 825

In: Specify RP-LC retention time for CS(=O)(=O)N1CCC(OC2CCN(C(=O)Nc3cccc(Cl)c3)CC2)CC1 and stop.
Out: 831

In: Please give the documented RP-LC retention time of CCOC(=O)C(C)Sc1nnc(NC(=O)c2cccc([N+](=O)[O-])c2C)s1 (stereo not drawn)
Out: 859

* * *

Assay: gradient 5% acetonitrile 3 min, to 50% in 2 min, to 85% in 15 min, held 3 min, 100 µL/min
Conditions: column: Zorbax Extend-C18 2.1 x 50 mm; eluents: water / acetonitrile, 0.1% formic acid
Measurement label: RP-LC retention time (s)
Record the value in s, omitting the unit from your answer.

Known RP-LC retention time results, listed for orientation:
O=C(NC1CCCC1)c1nc(C(=O)N2CCN(c3ncccn3)CC2)cs1    759
CC(=O)NCC(O)c1ccc([N+](=O)[O-])cc1 (stereo not given)    661

In: Look up RP-LC retention time of COC(=O)CNC(=O)N1CCCC1c1ccccc1C (stereo not given) and report it.
Out: 737

In: Tell us which RP-LC retention time value is on record for O=C(COc1cc(O)c2c(=O)c3ccccc3oc2c1)c1ccc(Br)cc1
Out: 1280

In: Note down RP-LC retention time recorded for Cc1ccc(S(=O)(=O)N(C)C)cc1-c1nnc(-c2ccccc2Cl)o1
Out: 1010

* * *

Experiment: gradient 5% acetonitrile 3 min, to 50% in 2 min, to 85% in 15 min, held 3 min, 100 µL/min
Details: column: Zorbax Extend-C18 2.1 x 50 mm; eluents: water / acetonitrile, 0.1% formic acid
Entries annotated with measured RP-LC retention time
Note: unit s is implicit; provide only the numeric part.

Look over these answered cases.
Cc1ccc(NC(=O)C2CCN(S(C)(=O)=O)c3ccccc3O2)cc1 (stereo unspecified)    892
Cc1ccc2ncn(C3CCN(S(=O)(=O)c4cccc(F)c4)CC3)c(=O)c2c1    909
CN(C)C[C@@H]1CN(S(C)(=O)=O)C[C@H]1NC(=O)COc1ccc(Cl)cc1    629
CN(CCc1noc(COc2ccc(Cl)cc2)n1)C(=O)NCc1ccccc1    944

In: Given the molecule Cc1ccc2nc(C)c(NC(=O)CSCc3ccccc3)c(=O)n2c1 , write its reported RP-LC retention time.
Out: 662

In: Answer with the recorded RP-LC retention time of CC1(C)C(=O)N(c2ccc(C#N)c(C(F)(F)F)c2)C(=O)N1CCCCO only.
Out: 888

In: Supply recorded RP-LC retention time for Cc1ccc(-c2nc(-c3ccc(-c4noc(CNS(=O)(=O)c5ccccc5)n4)cc3)cs2)s1 here.
Out: 1290

In: Answer with reported RP-LC retention time of COc1cc(-c2noc(CN3C(=O)COc4cc(Cl)ccc43)n2)cc(OC)c1OC
Out: 1020

In: Identify RP-LC retention time associated with the molecule O=c1cc(CN(Cc2ccccc2)Cc2ccccc2)nc2ccccn12
Out: 671

In: For the molecule O=C(CN1C(=O)COc2ccc(C(=O)N3CCCCC3)cc21)NC1CCCCCCC1 , give its reported RP-LC retention time.
Out: 844

In: Supply RP-LC retention time value. Item: Cc1cnc(CCNC(=O)NCC(C)C)n1C1CCCCCC1
Out: 588

In: Please supply the value of reported RP-LC retention time for the item Cc1ccccc1NC(=O)NCCCn1c(C(F)(F)F)nc2cccnc21
Out: 761

In: Quickly give me recorded RP-LC retention time for CC1Cc2ccccc2N1C(=O)Cn1c(=O)n(C(C)C)c2ccc(S(=O)(=O)N3CCCC3)cc21 (stereo unspecified)
Out: 963

In: Given the molecule O=C(NCc1ccc(C(F)(F)F)cc1)C1CCN(c2nnc3ccc(Cl)cn23)CC1 , write its reported RP-LC retention time.
Out: 718

In: Please supply the value of reported RP-LC retention time for the item Cc1nc2cc(-c3noc(-c4cc(Cl)ccc4F)n3)ccc2o1
Out: 1150

In: For the molecule Cc1ccc(S(=O)(=O)N2C[C@@H](F)C[C@H]2C(=O)N2CCc3ccccc3C2)cc1F , give its measured RP-LC retention time value.
Out: 954

In: Give RP-LC retention time for the following molecule: CCN1C(=O)c2cc(C(=O)N3CCC(N4CCCCC4)CC3)nn2CC1(C)C(=O)NC1CCCC1 (stereo unspecified)
Out: 604

In: Identify RP-LC retention time associated with the molecule O=C1[C@H]2CN(Cc3cc(Cl)ccc3F)C[C@H]2C(=O)N1CCc1ccccc1
Out: 840

In: For the molecule COc1ccc(C2C(C(=O)Nc3ccccn3)c3cc(OC)c(OC)cc3C(=O)N2C)cc1OC (stereo unspecified) , give its reported RP-LC retention time.
Out: 677

In: Indicate its recorded RP-LC retention time; the molecule in question is Cc1cc(C)c(CN2CCC3(CC2)CC3c2noc(C)n2)c(C)c1 (stereo unspecified)
Out: 655

In: Identify RP-LC retention time associated with the molecule Cc1cccc2c1ncn1c(=O)n(CC(=O)Nc3ccc4c(c3)OCCO4)nc21
Out: 637
